- target_entity: recombinant Axl tyrosine kinase (Homo sapiens, UniProt P30530)
- Construct: encompassing amino acids 473 to 894 of Axl; GST (N); made in house; host or cells: SF126 insect cells
- Sequence (P30530 473-894): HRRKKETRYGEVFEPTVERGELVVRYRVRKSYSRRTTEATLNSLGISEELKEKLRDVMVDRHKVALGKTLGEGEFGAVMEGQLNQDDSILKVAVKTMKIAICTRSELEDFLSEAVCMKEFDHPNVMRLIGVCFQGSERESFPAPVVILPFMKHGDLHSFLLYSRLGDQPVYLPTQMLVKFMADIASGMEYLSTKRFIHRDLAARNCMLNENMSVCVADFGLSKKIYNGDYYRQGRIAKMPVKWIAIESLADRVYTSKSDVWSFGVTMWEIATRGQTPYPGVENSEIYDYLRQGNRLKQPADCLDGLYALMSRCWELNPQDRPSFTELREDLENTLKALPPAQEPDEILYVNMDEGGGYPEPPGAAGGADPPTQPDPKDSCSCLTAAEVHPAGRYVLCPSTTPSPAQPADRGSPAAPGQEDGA
- assay_name: In vitro Axl kinase assay (AlphaScreen), Test (a)
- Format: biochemical
- measurement_conditions: test compound at 1 μM; first value quoted; read-out: % Axl tyrosine kinase inhibition at 1 μM concentration
Parameter inhibition at 1 µM: see the listing below.
Dear colleague, please return just the value in %, with no unit written.

For orientation, consider the following solved cases.
compound	unit_descriptor	numeric_readout
Nc1ncc(-c2cnn(C3CCNCC3)c2)nc1-c1nc2ccc(F)cc2o1 [Example 17A.1]	%	98.5
CN1CCN(c2ncc(-c3cnc(N)c(-c4nc5ccccc5o4)c3)s2)CC1 [Example 25.5]	%	82.9

Fill in the blank: the reported inhibition at 1 µM of Nc1ncc(-c2cccc(N3CCNCC3)c2)cc1-c1nc2ccccc2o1 [Example 2.10] is ____.
99.5
